Biological target: T1, TFAM (no MTS) (Homo sapiens, UniProt Q00059 43-246)
T1 sequence: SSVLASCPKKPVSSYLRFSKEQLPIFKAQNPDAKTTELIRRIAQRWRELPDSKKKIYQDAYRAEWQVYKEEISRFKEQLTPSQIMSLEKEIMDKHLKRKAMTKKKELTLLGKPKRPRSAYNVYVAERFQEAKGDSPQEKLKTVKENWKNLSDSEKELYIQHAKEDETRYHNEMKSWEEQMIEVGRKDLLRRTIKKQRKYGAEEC
Assay: fluorescence anisotropy; Hill n 3.09±0.11; FP: 25 mM HEPES, 10 mM Mg(OAc)2, 25 mM NaOAc, 75 mM KOAc, pH 7.5, 1 nM DNA, TFAM 0-15 nM diluted on ice (read temperature not stated); AFM oligos: on ice, 2 min
Settings: protein: recombinant; label: 5' 6-FAM on strand 1; blunt
Measurement type: pKd
Hey, just a heads up that pKd is the negative log base 10 of the concentration in molar.

Which pKd is listed for ND1_353 40mer (dsDNA) DNA 1: CACAAACATTATTATAATAAACACCCTCACCACTACAATC DNA 2: GATTGTAGTGGTGAGGGTGTTTATTATAATAATGTTTGTG ? 8.24
